experimental system: human recombinant adrenergic α2B receptor (Homo sapiens)
Construct: expressed in transfected cells; host or cells: CHO-K1
Sequence (P18089 whole entry): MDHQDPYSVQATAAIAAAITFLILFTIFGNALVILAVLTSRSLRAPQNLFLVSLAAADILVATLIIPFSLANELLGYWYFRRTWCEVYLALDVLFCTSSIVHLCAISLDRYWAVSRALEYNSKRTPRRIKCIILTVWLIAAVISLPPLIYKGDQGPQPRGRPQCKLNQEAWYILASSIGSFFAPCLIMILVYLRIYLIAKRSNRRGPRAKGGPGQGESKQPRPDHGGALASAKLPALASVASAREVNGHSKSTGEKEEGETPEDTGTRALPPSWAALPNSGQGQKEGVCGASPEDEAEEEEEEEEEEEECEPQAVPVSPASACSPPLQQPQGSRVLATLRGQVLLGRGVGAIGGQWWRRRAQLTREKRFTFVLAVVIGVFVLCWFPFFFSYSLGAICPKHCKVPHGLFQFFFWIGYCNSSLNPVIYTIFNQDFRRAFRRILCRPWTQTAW
assay info: Radioligand binding, adrenergic α2B ([3H]Rauwolscine)
experimental setup: read-out: Percentage inhibition of ligand binding, Adrenergic α2B (0.1 μM), compound at 0.1 μM; [3H]Rauwolscine; repeat datapoints each shown
Experimental: To evaluate in radioligand binding assays the activity of compounds of the invention, human recombinant adrenergic α2B receptor expressed in Chinese hamster ovary (CHO) K1 cells (Uhlen, S. et al, Eur. J. Pharmacol. 343(1):93, 1998) in a modified Tris-HCl buffer (50 mM Tris-HCl, pH 7.4, 12.5 mM MgCl2, 1 mM EDTA, 0.2% BSA) was used. […] Receptor proteins were filtered and washed, the filters were then counted to determine [3H]Rauwolscine specifically bound. […]
property label: inhibition at 0.1 µM (%)

Answered examples (10):
molecule	value
CNC(=O)c1cccc(/C(C)=C/n2c3c(c4cc(C)ccc42)CN(C)CC3)c1 [compound 107]	85
C/C(=C\n1c2c(c3cc(C)ccc31)CCN(C)C2C)c1ccccc1F (stereo not shown) [compound 96]	71
COc1ccc2c(c1)c1c(n2/C=C(/C)c2ccncc2)CCN(C)C1 [compound 100]	72
C/C(=C\n1c2c(c3cc(C)ccc31)CN(C)CC2)c1ccc(CO)nc1 [compound 125]	68
CN1CCc2c(c3cc(Cl)ccc3n2CCc2ccccc2)C1 [compound 207]	106
FC(F)(F)c1ccc(CCn2c3c(c4cccnc42)C2CCCN2CC3)cn1 (stereo not shown) [IV-2]	50
Cc1cnc2c(c1)c1c(n2CC(C)(O)c2ccc(C)nc2)CCN2CCCC12 (single isomer, unassigned) [148b]	106
Cc1ccc2c(c1)c1c(n2CC(C)(O)c2cccnc2)CCN(C)CC1 (single isomer, unassigned) [II-135b]	105
CN1CCc2c(n(CC(C)(O)c3ccc(F)cc3)c3ccc(Cl)cc23)CC1 (stereo not shown) [compound 221]	80
Cc1ccc2c(c1)c1c(n2CC(OC(=O)C(C)(C)C)c2ccncc2)CCN(C)C1 (single isomer, unassigned) [130a]	107

(P) Cc1ccc(CCn2c3c(c4ccccc42)CN(C)CC3)cc1 [compound 181]
(Q) Cc1ccc2c(c1)c1c(n2CNc2ccccn2)CCN(C)C1 [compound 120]
(R) CN1Cc2c(n(CCc3ccc(C(F)(F)F)nc3)c3ncccc23)C(C)(C)C1 [II-215]
[ask] Let's sort these by inhibition at 0.1 µM, smallest first. Go ahead? List labels; respect the requested ordering.
[reply] R, Q, P

====

experimental system: rat adrenergic α1B receptor (Rattus norvegicus, UniProt P15823)
Construct: rat adrenergic α1B receptor obtained from Wistar Rat liver; from tissue; host or cells: Wistar rat liver
Sequence (P15823 whole entry): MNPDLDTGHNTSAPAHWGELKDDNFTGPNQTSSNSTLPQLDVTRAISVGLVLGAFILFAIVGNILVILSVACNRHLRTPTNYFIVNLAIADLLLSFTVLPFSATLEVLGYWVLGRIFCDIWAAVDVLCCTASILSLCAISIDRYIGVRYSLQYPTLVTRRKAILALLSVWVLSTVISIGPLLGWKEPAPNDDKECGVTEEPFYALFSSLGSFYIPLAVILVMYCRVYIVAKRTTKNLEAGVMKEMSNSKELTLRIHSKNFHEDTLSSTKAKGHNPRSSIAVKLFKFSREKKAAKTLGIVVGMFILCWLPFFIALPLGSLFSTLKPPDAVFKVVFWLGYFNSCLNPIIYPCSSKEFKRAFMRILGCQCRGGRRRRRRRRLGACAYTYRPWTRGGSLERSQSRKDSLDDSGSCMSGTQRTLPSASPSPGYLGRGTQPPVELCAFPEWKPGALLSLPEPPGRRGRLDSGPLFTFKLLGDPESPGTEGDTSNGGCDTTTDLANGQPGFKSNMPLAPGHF
assay info: Radioligand binding, adrenergic α1B ([3H]Prazosin)
experimental setup: compound at 0.1 μM; [3H]Prazosin; repeat assays, each datapoint shown; read-out: Percentage inhibition of ligand binding, Adrenergic α1B
property label: inhibition at 0.1 µM (%)

Answered examples (3):
molecule	property label	u	value
Cc1ccc2c(c1)c1c(n2CCc2ccc(C(F)(F)F)nc2)CCN(C)C1 [compound 86]	inhibition at 0.1 µM	%	62
Cc1ccc2c(c1)c1c(n2CC(C)(O)c2cccnc2)CCN(C)C1 (centres unmarked) [compound 5]	inhibition at 0.1 µM	%	14
Cc1ccc2c(c1)c1c(n2CC(C)(O)c2cccnc2)CN(C)CC1 (centres unmarked) [14b]	inhibition at 0.1 µM	%	25

(P) CN1Cc2c(n(CC(O)c3ccncc3)c3ncccc23)C(C)(C)C1 (centres unmarked) [compound 17]
(Q) CN1CCc2c(c3cc(Cl)ccc3n2CC(O)c2ccncc2)C1 (single isomer, unassigned) [4a]
[ask] In terms of reported inhibition at 0.1 µM, does P or Q have the smaller number? // respond with label for picked entry
[reply] P
